Origin of values: ChEMBL document CHEMBL2157961

- assayExplanation: Lipophilicity, log D of the compound at pH 7.4
- Format: physicochemical
- experimentalContext: buffer
readoutType: logD

molecularstring=CCCSc1nc(NC)ncc1C(=O)N[C@H]1C2CC3CC1C[C@](O)(C3)C2 readouttype=logD observedvalue=2.9
molecularstring=Cc1nc(N2CCOCC2)ncc1C(=O)N[C@H]1C2CC3CC1C[C@](O)(C3)C2 readouttype=logD observedvalue=1.2
molecularstring=O=C(N[C@H]1C2CC3CC1C[C@](O)(C3)C2)c1cnc(N2CCOCC2)nc1C1CCC1 readouttype=logD observedvalue=2.4
molecularstring=Cc1ncc(C(=O)N[C@H]2C3CC4CC2C[C@](O)(C4)C3)c(C2CC2)n1 readouttype=logD observedvalue=1.2
molecularstring=CCCSc1nc(N(C)C)ncc1C(=O)N[C@H]1C2CC3CC1C[C@](O)(C3)C2 readouttype=logD observedvalue=3.4
molecularstring=O=C(N[C@H]1C2CC3CC1C[C@](O)(C3)C2)c1cnc(N2CCOCC2)nc1C1CC1 readouttype=logD observedvalue=2.1
molecularstring=CCCCc1nc(C)ncc1C(=O)N[C@H]1C2CC3CC1C[C@](O)(C3)C2 readouttype=logD observedvalue=1.6
molecularstring=CC1(c2nc(N3CCOCC3)ncc2C(=O)N[C@H]2C3CC4CC2C[C@](O)(C4)C3)CC1 readouttype=logD observedvalue=1.8
molecularstring=Cc1ncc(C(=O)N[C@H]2C3CC4CC2C[C@](O)(C4)C3)c(CC2CC2)n1 readouttype=logD observedvalue=1.2
